# System: Staphylococcus aureus SAU.42 (ATCC 29213)
# Format: cell-based
# conditions-used: ATCC 29213
Let's look at some molecules and their measured Sa42 MIC.
Response body: numeric value in µg/mL, unit text excluded.

Any idea what its Sa42 MIC is? The molecule is "CCCCOc1ccc(-c2ccc(C(=O)N[C@@H](Cc3c[nH]c4ccccc34)C(=O)N[C@H](CC(N)=O)C(=O)N[C@@H](CC(=O)O)C(=O)N[C@@H]3C(=O)NCC(=O)N[C@@H](CCCN)C(=O)N[C@@H](CC(=O)O)C(=O)N[C@H](C)C(=O)N[C@@H](CC(=O)O)C(=O)NCC(=O)N[C@H](CO)C(=O)N[C@@H]([C@H](C)CC(=O)O)C(=O)N[C@@H](CC(=O)c4ccccc4N)C(=O)O[C@@H]3C)cc2)cc1" 1

***
Any idea what its Sa42 MIC is? The molecule is "CCc1ccc(CCC(=O)N[C@@H](Cc2c[nH]c3ccccc23)C(=O)N[C@H](CC(N)=O)C(=O)N[C@@H](CC(=O)O)C(=O)N[C@@H]2C(=O)NCC(=O)N[C@@H](CCCN)C(=O)N[C@@H](CC(=O)O)C(=O)N[C@H](C)C(=O)N[C@@H](CC(=O)O)C(=O)NCC(=O)N[C@H](CO)C(=O)N[C@@H]([C@H](C)CC(=O)O)C(=O)N[C@@H](CC(=O)c3ccccc3N)C(=O)O[C@@H]2C)cc1" 8
